system: Plasmodium falciparum Sir2 (PF13_0152, Sir2A); assay: pfSir2 binders on small-molecule microarrays, primary screen, biochemical, small-molecule microarray, 635 nm fluorescence (AID 1098); conditions: small-molecule microarray binding, fluorescence 635 nm; higher = more signal;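 note: score merges spot fluorescence intensity with its signal-to-noise ratio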
Grouping key: composite z-score. Bins: bin 0 (below 0.4), bin 1 (0.4 to below 1), bin 2 (1 or more)

[
  {
    "compound": "CN(C)CCCCNC(=O)[C@H]1C[C@H]2C(=O)N[C@@H](Cc3ccccc3)C(=O)N2[C@H]1c1cccc(OCCO)c1",
    "label value": "bin 2"
  },
  {
    "compound": "CC(C)C[C@H]1NC(=O)[C@@]23C(=O)N[C@@H](Cc4ccccc4)C2[C@H](C)[C@@]2(C)O[C@H]2C3/C=C/C/C=C\\CNC(=O)[C@@H]2CCCN2C1=O (some centres not stated)",
    "label value": "bin 1"
  },
  {
    "compound": "COCCOC(=O)N1C(=O)[C@@]2(c3cc(C#CC4(O)CCCCCC4)ccc31)[C@H](c1ccccc1OCCO)N1[C@H](c3ccccc3)[C@H](c3ccccc3)OC(=O)[C@H]1[C@@H]2C(=O)N1CCCCCCC1",
    "label value": "bin 2"
  },
  {
    "compound": "CCCCC(=C=CC[C@@H](O)c1cccc(OCCO)c1)C[C@@H](O)COCc1ccccc1",
    "label value": "bin 0"
  },
  {
    "compound": "C=CCC(OC(C)=O)[C@@H]1[C@@H](N(Cc2ccc(-c3cccc(C(F)(F)F)c3)o2)C(=O)Cc2ccc(F)cc2)c2cc(OCCCO)ccc2N1C(=O)c1ccc2ccccc2c1 (some centres not stated)",
    "label value": "bin 1"
  },
  {
    "compound": "CCN(CC)c1ccc(N2CC=CC34O[C@@H]5C=CCOC(=O)[C@@H]5[C@H]3C(=O)N(CCO)[C@@H]4C2=O)cc1 (some centres not stated)",
    "label value": "bin 2"
  },
  {
    "compound": "COc1cccc(OC)c1C(=O)O[C@H]1[C@@H]2OC(=O)[C@H](Cc3cccc(Br)c3)C/C=C/C[C@@H](Cc3cccc(Br)c3)C(=O)O[C@H]2[C@@H](OC)O[C@@H]1CO",
    "label value": "bin 0"
  },
  {
    "compound": "CC1CC/C=C\\[C@H]2OC34C=CCN(CCN5CCOCC5)C(=O)[C@H]3N(CCCCCCO)C(=O)[C@@H]4C2C(=O)O1 (some centres not stated)",
    "label value": "bin 0"
  },
  {
    "compound": "COCCOC(=O)N1C(=O)[C@@]2(c3cc(C#CCCO)ccc31)[C@H](C(=O)N1CCc3cc(OC)c(OC)cc3C1)[C@H]1C(=O)O[C@H](c3ccccc3)[C@H](c3ccccc3)N1[C@@H]2c1ccccc1OCCO",
    "label value": "bin 2"
  },
  {
    "compound": "CC(C)C[C@@H]1NC(=O)[C@@]23C(=O)N[C@@H](Cc4ccccc4)C2[C@H](C)[C@@]2(C)O[C@H]2C3/C=C/C/C=C\\CNC(=O)[C@@H](CC(C)C)NC1=O (some centres not stated)",
    "label value": "bin 0"
  },
  {
    "compound": "CCCCNC(=O)c1ccc(C#C[Si](C)(C)C)c(OC(C)=O)c1",
    "label value": "bin 0"
  },
  {
    "compound": "CC(C)C(=C=CC[C@@H](O)c1cccc(OCCO)c1)CCO",
    "label value": "bin 1"
  },
  {
    "compound": "C=C(CC1([C@@H](NP(=O)(c2ccccc2)c2ccccc2)[C@H]2C[C@@H]2CCN(C(=O)OCC)S(=O)(=O)c2ccc(C)cc2)CC1)c1ccccc1",
    "label value": "bin 1"
  },
  {
    "compound": "CC(C)N1CC=CC23O[C@@H]4C=CCCOC(=O)C4[C@H]2C(=O)N(CCCCCO)[C@@H]3C1=O (some centres not stated)",
    "label value": "bin 2"
  },
  {
    "compound": "C[C@H]1NC(=O)C([C@@H](C)OCc2ccccc2)NC(=O)[C@@]23C(=O)N[C@@H](Cc4ccccc4)C2[C@H](C)[C@@]2(C)O[C@H]2C3/C=C/C/C=C\\CNC1=O (some centres not stated)",
    "label value": "bin 0"
  },
  {
    "compound": "COC(=O)Cn1c(C(=O)N(C)C)cc2c1C[C@H]1CN(C(=O)c3ccccc3)[C@@](Cc3ccc(OC)cc3)(C(=O)OC)[C@@H]21",
    "label value": "bin 2"
  },
  {
    "compound": "[N-]=[N+]=NCc1ccccc1C[C@]1(C(=O)N2CCOCC2)N=C(c2ccc(OCCCO)cc2)O[C@H]1c1ccccc1CN=[N+]=[N-]",
    "label value": "bin 2"
  },
  {
    "compound": "COCC1=C([C@H](O)CCc2ccccc2)[C@H](CO)n2c(=O)n(-c3ccccc3)c(=O)n2C1",
    "label value": "bin 0"
  },
  {
    "compound": "COC(=O)[C@@]1(Cc2ccc(OC)cc2)[C@H]2c3cc(C(=O)N(C)C)n(Cc4ccsc4Br)c3C[C@H]2CN1C(=O)c1ccccc1",
    "label value": "bin 1"
  },
  {
    "compound": "CCC[C@@H]1[C@@H](Sc2ccccc2)[C@@H](C(=O)O)[C@H](c2ccc(C)cc2)N1S(=O)(=O)c1ccc(C)cc1",
    "label value": "bin 2"
  },
  {
    "compound": "C=C(CCCC)/C(=C/C[C@H](OC(C)=O)c1cccc(OCCO)c1)c1cc(C(=O)OC)ccc1OC",
    "label value": "bin 0"
  },
  {
    "compound": "COc1cccc(C[C@H]2C[C@@H](CO[Si](C(C)C)(C(C)C)C(C)C)N3C(=O)[C@@]4(C(C)=O)O[C@@]23[C@@H]2C(=O)N(C)C(=O)[C@@H]24)c1",
    "label value": "bin 1"
  },
  {
    "compound": "CCOC(=O)C[C@H]1[C@H](OC(=O)c2cc3ccccc3oc2=O)[C@@H](NC(=O)C2CCCCC2)c2cc(OCCCO)ccc2N1C(=O)Cc1ccc(OC)cc1",
    "label value": "bin 0"
  },
  {
    "compound": "C=C(COC)/C(=C/C[C@H](OC(=O)c1ccncc1)c1cccc(OCCO)c1)c1cnc2ccccc2c1",
    "label value": "bin 1"
  },
  {
    "compound": "CCCCC(=C=CC[C@@H](O)c1ccc(OCCO)cc1)C[C@@H](O)c1ccccn1",
    "label value": "bin 0"
  },
  {
    "compound": "CC(C)C[C@@H]1NC(=O)[C@H]2C[C@@H](C(=O)NCCCCCCNC(=O)CS)[C@@H](c3ccc(O)cc3)N2C1=O",
    "label value": "bin 2"
  },
  {
    "compound": "CCOC(=O)C1=CC[C@@H](c2ccccc2)N(S(=O)(=O)C[Si](C)(C)C)[C@H]1c1ccccc1",
    "label value": "bin 2"
  }
]

Values from PubChem BioAssay
